Provenance of the data: patent US20240116985A1

# procedure-summary: CHI Log D procedure
# Type: physicochemical
# condition-details: pH 7.4
measured-parameter: CHI Log D
# output: bare number, no unit

Qu. Look up and state reported CHI Log D for CC(=O)N1CCC[C@]12CC=CCCCC1(CCCC=CCCCCCC[C@@](C)(C(=O)N[C@@H](Cc3ccccc3)C(=O)N[C@@H](Cc3csc4ccccc34)C(=O)N[C@@H](CCC(N)=O)C(N)=O)NC(=O)[C@H](CCC(N)=O)NC(=O)[C@H](Cc3ccccc3)NC(=O)[C@H](C)NC(=O)[C@H](C)NC(=O)[C@H](CCC(=O)O)NC(=O)[C@H](CC(=O)O)NC1=O)NC(=O)[C@H](CC(C)C)NC(=O)[C@H](CC(=O)O)NC2=O (some centres unmarked)
Ans. 2.259

Qu. Look up and state reported CHI Log D for CC(=O)N1CCC[C@]12CC=CCCCC1(CCCC=CCCCCCC[C@@](C)(C(=O)N[C@@H](Cc3ccccc3)C(=O)N[C@@H](Cc3c[nH]c4ccccc34)C(=O)N[C@@H](CCC(N)=O)C(N)=O)NC(=O)[C@H](C(C)C)NC(=O)[C@H](Cc3ccc(C(F)(F)F)cc3)NC(=O)[C@H](C)NC(=O)[C@H](C)NC(=O)[C@H](CC(=O)O)NC(=O)[C@H](CC(=O)O)NC1=O)NC(=O)[C@H](C)NC(=O)[C@H](CC(=O)O)NC2=O (some centres unmarked) [I-240]
Ans. 2.074

Qu. Look up and state reported CHI Log D for CC(=O)N1CCC[C@]12CC=CCCCC1(CCCC=CCCCCCC[C@@](C)(C(=O)N[C@@H](Cc3ccsc3)C(=O)N[C@@H](Cc3csc4ccccc34)C(=O)N[C@@H](CCC(N)=O)C(N)=O)NC(=O)[C@H](CC(N)=O)NC(=O)[C@H](Cc3ccccc3)NC(=O)[C@H](C)NC(=O)[C@H](C)NC(=O)[C@H](CC(=O)O)NC(=O)[C@H](CC(=O)O)NC1=O)NC(=O)[C@H](CC(C)(C)C)NC(=O)[C@H](CC(=O)O)NC2=O (some centres unmarked) [I-678]
Ans. 2.329

Qu. Look up and state reported CHI Log D for CC(=O)N1CCC[C@]12CC=CCCCC1(CCCC=CCCCCCC[C@@](C)(C(=O)N[C@@H](Cc3ccccc3)C(=O)N[C@@H](Cc3csc4ccccc34)C(=O)N[C@@H](CCC(N)=O)C(N)=O)NC(=O)[C@H](CC(N)=O)NC(=O)[C@H](Cc3ccccc3)NC(=O)[C@H](C)NC(=O)[C@H](C)NC(=O)[C@H](CCC(=O)O)NC(=O)[C@H](CC(=O)O)NC1=O)NC(=O)[C@H](CC1CCCCC1)NC(=O)[C@H](CC(=O)O)NC2=O (some centres unmarked) [I-619]
Ans. 2.677

Then there is this compound:
Qu. Look up and state reported CHI Log D for CC(=O)N1CCC[C@]12CC=CCCCC1(CCCC=CCCCCCC[C@@](C)(C(=O)N[C@@H](Cc3ccccc3)C(=O)N[C@@H](Cc3csc4ccccc34)C(=O)N(C)[C@@H](CO)C(N)=O)NC(=O)[C@H](CC(N)=O)NC(=O)[C@H](Cc3ccccc3)NC(=O)[C@H](C)NC(=O)[C@H](C)NC(=O)[C@H](CCC(=O)O)NC(=O)[C@H](CC(=O)O)NC1=O)NC(=O)[C@H](CC(C)C)NC(=O)[C@H](CC(=O)O)NC2=O (some centres unmarked) [I-760]
Ans. 2.66
